Where do the numbers come from? From patent US11759455B2.

ASSAY_TARGET: human GluN1/GluN2B NMDA receptors (Homo sapiens, UniProt Q05586+Q13224)
Construct: expressed in transfected cells
EXPERIMENT: Cell-based calcium flux (FLIPR) assay on cloned human NR1/NR2B ion channels expressed in mammalian cells (standard and HTS buffer variants)
ASSAY_CONTEXT: standard assay buffer (0.5 mM MgCl2 in dye loading buffer; 137 mM NaCl, 4 mM KCl in assay buffer), human GluN1/GluN2B, read-out: NR2B IC50 (μM) standard assay
OBSERVABLE: log10(IC50) (log10 of the value in µM)
Transform log10 | Measure IC50 | Unit µM

| COMPOUND | ASSAY_TARGET | VALUE_REPORTED |
| --- | --- | --- |
| Cc1c(-c2cnc3c(c2)n(CC2CCO2)c(=O)n3C)cccc1C(F)(F)F (racemic) [Example 398] | human GluN1/GluN2B NMDA receptors (Homo sapiens, UniProt Q05586+Q13224) | 0.45 |
| Cc1c(-c2cnc3c(c2)n(CC(O)CCO)c(=O)n3C)cccc1C(F)(F)F (racemic) [Example 399] | human GluN1/GluN2B NMDA receptors (Homo sapiens, UniProt Q05586+Q13224) | 0.71 |
| Cc1cc(-c2cnc3c(c2)n(CC2CCO2)c(=O)n3C)ccc1F (racemic) [Example 395] | human GluN1/GluN2B NMDA receptors (Homo sapiens, UniProt Q05586+Q13224) | 0.08 |
| CCC(O)Cn1c(=O)[nH]c2ncc(-c3ccc(F)c(C)c3F)cc21 (racemic) [Example 336] | human GluN1/GluN2B NMDA receptors (Homo sapiens, UniProt Q05586+Q13224) | -1.82 |

Consider the compound Cc1cc(-c2cnc3c(c2)n(CC(=O)N2CCC2)c(=O)n3C)ccc1F [Example 410] and give its measured log10(IC50).
-1.89

Consider the compound CCC(O)Cn1c(=O)n(C)c2ncc(-c3ccc(F)c(F)c3)cc21 (racemic) [Example 333] and give its measured log10(IC50).
0.28

Consider the compound COc1ccc(-c2cnc3[nH]c(=O)n(CC(=O)C(C)(C)C)c3c2)cc1 [Example 601] and give its measured log10(IC50).
0.21

Consider the compound Cn1c(=O)n(CC2CCO2)c2cc(-c3cccc(C(F)(F)F)c3F)cnc21 (racemic) [Example 396] and give its measured log10(IC50).
-0.87

* * *

ASSAY_TARGET: human GluN1/GluN2B NMDA receptors (Homo sapiens)
Construct: expressed in transfected cells
EXPERIMENT: Cell-based calcium flux (FLIPR) assay on cloned human NR1/NR2B ion channels expressed in mammalian cells (standard and HTS buffer variants)
ASSAY_CONTEXT: standard assay buffer (0.5 mM MgCl2 dye loading; 137 mM NaCl, 4 mM KCl assay buffer), human GluN1/GluN2B cells, read-out: NR2B IC50 (μM) standard assay
Quick reference for IC50 among some compounds
Number in µM, nothing else.

| CHEM_SMILES | UNIT_LABEL | IC50 |
| --- | --- | --- |
| COc1ccc(Cn2c(=O)[nH]c3ncc(-c4cccc(C(F)(F)F)c4)cc32)cc1F | µM | 1.65 |
| Cn1c(=O)n(CC(=O)N2CCC2)c2cc(-c3ccc(F)s3)cnc21 | µM | 0.031 |
| O=c1[nH]c2ncc(-c3cccc(C(F)(F)F)c3)cc2n1Cc1cccnn1 | µM | 0.017 |

Consider the compound COC1CN(C(=O)Cn2c(=O)[nH]c3ncc(-c4cccc(C(F)(F)F)c4)cc32)C1 and give its measured IC50.
0.132

* * *

ASSAY_TARGET: human GluN1/GluN2B NMDA receptors (Homo sapiens, UniProt Q13224)
Construct: expressed in transfected cells
Sequence (Q13224 27-1484, other chains not shown): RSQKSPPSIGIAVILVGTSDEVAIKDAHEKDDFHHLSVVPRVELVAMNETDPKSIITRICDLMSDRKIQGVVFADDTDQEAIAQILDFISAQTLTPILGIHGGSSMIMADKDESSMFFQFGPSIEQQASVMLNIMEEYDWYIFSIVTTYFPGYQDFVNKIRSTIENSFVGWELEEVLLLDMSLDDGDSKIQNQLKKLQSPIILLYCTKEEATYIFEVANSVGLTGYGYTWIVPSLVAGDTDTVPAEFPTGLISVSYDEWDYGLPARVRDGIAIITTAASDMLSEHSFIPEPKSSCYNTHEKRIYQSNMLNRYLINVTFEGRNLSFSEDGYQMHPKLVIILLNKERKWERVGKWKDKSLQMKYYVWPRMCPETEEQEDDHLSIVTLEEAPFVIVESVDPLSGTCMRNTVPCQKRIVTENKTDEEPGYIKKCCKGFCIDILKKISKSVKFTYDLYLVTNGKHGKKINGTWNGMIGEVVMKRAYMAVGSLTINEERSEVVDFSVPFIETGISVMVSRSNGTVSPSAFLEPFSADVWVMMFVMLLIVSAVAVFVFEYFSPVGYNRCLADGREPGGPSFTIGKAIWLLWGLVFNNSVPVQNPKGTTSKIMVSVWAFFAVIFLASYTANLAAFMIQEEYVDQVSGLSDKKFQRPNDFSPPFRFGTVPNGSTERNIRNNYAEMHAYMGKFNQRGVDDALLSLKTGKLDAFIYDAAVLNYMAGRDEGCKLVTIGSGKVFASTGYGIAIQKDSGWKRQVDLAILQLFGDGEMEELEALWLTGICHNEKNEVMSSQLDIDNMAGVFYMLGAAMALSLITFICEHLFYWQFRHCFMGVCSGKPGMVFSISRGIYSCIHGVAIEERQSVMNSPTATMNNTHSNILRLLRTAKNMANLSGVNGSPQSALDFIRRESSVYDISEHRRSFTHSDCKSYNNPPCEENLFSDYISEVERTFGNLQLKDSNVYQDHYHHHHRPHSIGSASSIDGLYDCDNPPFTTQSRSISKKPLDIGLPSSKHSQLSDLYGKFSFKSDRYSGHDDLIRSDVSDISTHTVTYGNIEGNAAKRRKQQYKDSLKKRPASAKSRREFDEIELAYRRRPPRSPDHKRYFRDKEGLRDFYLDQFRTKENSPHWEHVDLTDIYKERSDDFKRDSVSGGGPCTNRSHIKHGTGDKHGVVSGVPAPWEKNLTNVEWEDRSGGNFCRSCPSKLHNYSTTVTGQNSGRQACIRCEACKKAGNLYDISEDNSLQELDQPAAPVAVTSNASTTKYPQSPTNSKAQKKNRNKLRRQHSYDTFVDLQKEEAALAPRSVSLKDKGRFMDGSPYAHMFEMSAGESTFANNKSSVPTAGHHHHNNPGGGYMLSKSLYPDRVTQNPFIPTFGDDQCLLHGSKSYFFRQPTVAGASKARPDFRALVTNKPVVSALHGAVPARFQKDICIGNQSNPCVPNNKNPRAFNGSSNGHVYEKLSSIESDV
EXPERIMENT: Cell-based calcium flux (FLIPR) assay on cloned human NR1/NR2B ion channels expressed in mammalian cells (standard and HTS buffer variants);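 also: stable Tet-On inducible cell line, Ca2+ influx triggered by glutamate at about EC40 plus 10 µM glycine, fluorescent dye read-out over 5 min, normalized to control wells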
ASSAY_CONTEXT: standard assay buffer (0.5 mM MgCl2 dye loading; 137 mM NaCl, 4 mM KCl assay buffer), human GluN1/GluN2B cells, read-out: NR2B IC50 (μM) standard assay
Quick reference for IC50 among some compounds
Number in µM, nothing else.

# query: IC50 | item O=c1[nH]c2ncc(-c3cccc(C(F)(F)F)c3)cc2n1CCN1CCC(F)CC1 [Example 162] | system: human GluN1/GluN2B NMDA receptors (Homo sapiens, UniProt Q13224)
1.1

# query: IC50 | item O=c1[nH]cccc1Cn1c(=O)[nH]c2ncc(-c3cccc(C(F)(F)F)c3)cc21 [Example 32] | system: human GluN1/GluN2B NMDA receptors (Homo sapiens, UniProt Q13224)
8.33

# query: IC50 | item Cc1cncc(Cn2c(=O)[nH]c3ncc(-c4cccc(F)c4F)cc32)c1 [Example 310] | system: human GluN1/GluN2B NMDA receptors (Homo sapiens, UniProt Q13224)
0.088

# query: IC50 | item O=c1[nH]c2ncc(-c3cccc(OC(F)(F)F)c3)cc2n1CCN1CCC1 [Example 160] | system: human GluN1/GluN2B NMDA receptors (Homo sapiens, UniProt Q13224)
0.311

# query: IC50 | item Cn1c(=O)n(CC(=O)N2CC(F)C2)c2cc(-c3ccc(C4CC4)s3)cnc21 [Example 106] | system: human GluN1/GluN2B NMDA receptors (Homo sapiens, UniProt Q13224)
0.039

# query: IC50 | item O=c1[nH]c2ncc(-c3cccc(C(F)(F)F)c3)cc2n1Cc1csnn1 [Example 243] | system: human GluN1/GluN2B NMDA receptors (Homo sapiens, UniProt Q13224)
0.065

# query: IC50 | item COCc1noc(Cn2c(=O)[nH]c3ncc(-c4ccc(F)c(F)c4)cc32)n1 [Example 145] | system: human GluN1/GluN2B NMDA receptors (Homo sapiens, UniProt Q13224)
1.31

# query: IC50 | item O=c1[nH]c2ncc(-c3ccc(F)cc3)cc2n1Cc1ccccn1 [Example 286] | system: human GluN1/GluN2B NMDA receptors (Homo sapiens, UniProt Q13224)
1.98

# query: IC50 | item O=c1[nH]c2ncc(-c3cccc(C(F)(F)F)c3)cc2n1CCN1CCC1 [Example 17] | system: human GluN1/GluN2B NMDA receptors (Homo sapiens, UniProt Q13224)
0.146

# query: IC50 | item Cc1cc(-c2cnc3[nH]c(=O)n(Cc4cccnc4)c3c2)ccc1F [Example 294] | system: human GluN1/GluN2B NMDA receptors (Homo sapiens, UniProt Q13224)
0.023

# query: IC50 | item Cc1cc(Cn2c(=O)[nH]c3ncc(-c4ccc(F)cc4)cc32)nn1C [Example 16] | system: human GluN1/GluN2B NMDA receptors (Homo sapiens, UniProt Q13224)
8.9

# query: IC50 | item Cn1c(=O)n(CC(=O)N2CC(F)C2)c2cc(-c3ccsc3C(F)(F)F)cnc21 [Example 92] | system: human GluN1/GluN2B NMDA receptors (Homo sapiens, UniProt Q13224)
0.249

# query: IC50 | item Cc1c(F)ccc(-c2cnc3[nH]c(=O)n(Cc4cncc(F)c4)c3c2)c1F [Example 301] | system: human GluN1/GluN2B NMDA receptors (Homo sapiens, UniProt Q13224)
0.045

# query: IC50 | item O=c1[nH]c2ncc(-c3cccc(F)c3F)cc2n1Cc1cncc(F)c1 [Example 303] | system: human GluN1/GluN2B NMDA receptors (Homo sapiens, UniProt Q13224)
0.03

# query: IC50 | item Cn1ccc(Cn2c(=O)[nH]c3ncc(-c4ccc(F)cc4)cc32)n1 [Example 128] | system: human GluN1/GluN2B NMDA receptors (Homo sapiens, UniProt Q13224)
5.16

# query: IC50 | item Cc1c(F)ccc(-c2cnc3[nH]c(=O)n(CCN4CC(F)C4)c3c2)c1C [Example 184] | system: human GluN1/GluN2B NMDA receptors (Homo sapiens, UniProt Q13224)
2.57

# query: IC50 | item Cn1c(=O)n(Cc2cncnc2)c2cc(-c3ccc(F)c(F)c3)cnc21 [Example 60] | system: human GluN1/GluN2B NMDA receptors (Homo sapiens, UniProt Q13224)
0.45

# query: IC50 | item O=c1[nH]c2ncc(-c3ccc(F)c(F)c3)cc2n1Cc1ccccn1 [Example 279] | system: human GluN1/GluN2B NMDA receptors (Homo sapiens, UniProt Q13224)
5.03

# query: IC50 | item Cn1c(=O)n(Cc2cncnc2)c2cc(-c3cccc(F)c3)cnc21 [Example 54] | system: human GluN1/GluN2B NMDA receptors (Homo sapiens, UniProt Q13224)
0.61

# query: IC50 | item Cn1c(=O)n(Cc2cnccn2)c2cc(-c3cccc(F)c3)cnc21 [Example 55] | system: human GluN1/GluN2B NMDA receptors (Homo sapiens, UniProt Q13224)
3.03

# query: IC50 | item CCC(=O)Cn1c(=O)[nH]c2ncc(-c3cccc(C(F)(F)F)c3)cc21 [Example 240] | system: human GluN1/GluN2B NMDA receptors (Homo sapiens, UniProt Q13224)
0.022

# query: IC50 | item Cc1cc(F)ccc1-c1cnc2[nH]c(=O)n(CC(=O)NC3CC3)c2c1 [Example 36] | system: human GluN1/GluN2B NMDA receptors (Homo sapiens, UniProt Q13224)
0.159

# query: IC50 | item O=C(Cn1c(=O)[nH]c2ncc(-c3cccc(C(F)(F)F)c3)cc21)c1nccs1 [Example 215] | system: human GluN1/GluN2B NMDA receptors (Homo sapiens, UniProt Q13224)
0.365
